- testTarget: CALM1 2-149, P0DP23
resultType: selected by phage display

GGLLHWERLLGGLGGE [NCKAP5L, Q9HCH0]: confidence 2 (active)
LWPVLRSDAFSGLTAL [FIGN, Q5HY92]: confidence 3 (active)
VTAGWTWPALRTLSSL [NFKBIE, O00221]: confidence 2 (active)
WQRLQSNPHLKEGSVT [ACY1, Q03154]: confidence 2 (active)
EISNRWKLAQVQVQKD [EXOSC10, Q01780]: confidence 2 (active)

Quick request: selected by phage display for each listed item, please.
1. WPLLRKQLEGRLALPS [SPATA31A6, Q5VVP1]
2. STWGTVKDSLKALSSA [SRARP, Q8NEQ6]
3. DWSNLVDAAKAYEVQR [SIPA1L1, O43166]

1: confidence 2 (active); 2: confidence 2 (active); 3: confidence 3 (active)

Would you mind listing selected by phage display for each of the following binders?
1. AQDFFQRWKQLSLPQQ [AP2A1, O95782]
2. TNWTLLKSDMNKPHLI [TTLL6, Q8N841]
3. SISSQVSSAVMKSLLA [IL16, Q14005]

1: confidence 2 (active); 2: confidence 2 (active); 3: confidence 2 (active)

Hi there! I need selected by phage display for each item below, if you can.
1. AWKTALLANVGTISAI [PERM1, Q5SV97]
2. DRSWHQMVVRALSSQE [HSH2D, Q96JZ2]
3. MAAWKSWTALRLAATV [TMX3, Q96JJ7]
4. GTHWRVLGLALLSVGV [CD3E, P07766]
5. WKTLKERESILKLLDG [TADA3, O75528]

1: confidence 2 (active); 2: confidence 2 (active); 3: confidence 2 (active); 4: confidence 3 (active); 5: confidence 3 (active)
